Molecular target: APOL1 (Homo sapiens)
Test: MultiTox-Fluor Multiplex Cytotoxicity Assay in tet-inducible APOL1 T-REx-HEK293 cells (cell rescue, ratio of dead to live cells)
Details: tet-inducible transgenic APOL1 T-REx-HEK293 cell lines, 50 ng/mL tet, 24 hours; read-out: IP50 (i.e., IC50 for cell proliferation)
Experimental: The MultiTox-Fluor Multiplex Cytotoxicity Assay is a single-reagent-addition, homogeneous, fluorescence assay that measures the number of live and dead cells simultaneously in culture wells. […] The MultiTox reagent was added to each well and placed back in the incubator for an additional 30 minutes. The plate was read on the EnVision plate reader. A ratio of dead to live cells was used to normalize, and data was imported, analyzed, and fit using Genedata Screener (Basel, Switzerland) software. […]
pIC50: −log10 of the molar value.
Recorded pIC50 by entry

{"compound": "C[C@H]1C[C@@]2(CCN1Cc1cnn(CC(O)CC(C)(C)C#N)c1)OCCc1c2sc(C(F)(F)F)c1CO (some centres unmarked)", "measurement.target": "APOL1 (Homo sapiens)", "pIC50": "> 7.00"}
{"compound": "CCc1cc2c(s1)CCOC21CCN(Cc2cn(C(C)C(=O)NCCC(F)(F)F)nn2)CC1 (centres unmarked)", "measurement.target": "APOL1 (Homo sapiens)", "pIC50": "6.00 to 6.30"}
{"compound": "CCc1cc2c(s1)CCOC21CCN(Cc2cnc(N[C@H]3CC[C@H](O)CC3)nc2)CC1", "measurement.target": "APOL1 (Homo sapiens)", "pIC50": "> 7.00"}
{"compound": "C[C@H]1C[C@@]2(CCN1Cc1cnn(CCC(N)=O)c1)OC[C@@H](O)c1cc(C(F)(F)F)sc12", "measurement.target": "APOL1 (Homo sapiens)", "pIC50": "> 7.00"}
{"compound": "CCc1cc2c(s1)CCO[C@@]21CCN(Cc2cn(CCN3CCCC3=O)nn2)[C@@H](C)C1", "measurement.target": "APOL1 (Homo sapiens)", "pIC50": "6.00 to 6.30"}
{"compound": "CCc1cc2c(s1)CCO[C@@]21CCN(C[C@H]2C[C@@H](NC(=O)OCC3CC3)C2)[C@@H](C)C1", "measurement.target": "APOL1 (Homo sapiens)", "pIC50": "6.30 to 7.00"}
{"compound": "CCc1cc2c(s1)CCO[C@@]21CCN(Cc2cn(C3CCN(S(C)(=O)=O)C3)nn2)[C@@H](C)C1 (some centres unmarked)", "measurement.target": "APOL1 (Homo sapiens)", "pIC50": "6.30 to 7.00"}
{"compound": "CCc1cc2c(s1)CCO[C@@]21CCN(Cc2cn([C@H]3C[C@@H](OC)C3)nn2)[C@@H](C)C1", "measurement.target": "APOL1 (Homo sapiens)", "pIC50": "> 7.00"}
{"compound": "CC(O)Cn1cc(CN2CC[C@]3(C[C@@H]2C)OCCc2c3sc(C(F)(F)F)c2CO)nn1 (some centres unmarked)", "measurement.target": "APOL1 (Homo sapiens)", "pIC50": "> 7.00"}
{"compound": "CCc1cc2c(s1)CCO[C@@]21CCN(CC(O)CC(F)(F)F)[C@@H](C)C1 (some centres unmarked) [Compound 244]", "measurement.target": "APOL1 (Homo sapiens)", "pIC50": "6.30 to 7.00"}
{"compound": "CCc1cc2c(s1)CCO[C@@]21CCN(Cc2cn(CC3(C4CCOCC4)CC3)nn2)[C@@H](C)C1", "measurement.target": "APOL1 (Homo sapiens)", "pIC50": "6.00 to 6.30"}
{"compound": "CCc1cc2c(s1)CCO[C@@]21CCN(C[C@H]2C[C@@H](NS(=O)(=O)CC#N)C2)[C@@H](C)C1", "measurement.target": "APOL1 (Homo sapiens)", "pIC50": "> 7.00"}
{"compound": "CCc1cc2c(s1)CCO[C@@]21CCN(C[C@H]2C[C@@H](NC(=O)C(C)(O)C(F)(F)F)C2)[C@@H](C)C1 (some centres unmarked)", "measurement.target": "APOL1 (Homo sapiens)", "pIC50": "6.30 to 7.00"}
{"compound": "CCc1cc2c(s1)CCO[C@@]21CCN(Cc2cn([C@H]3CS(=O)(=O)C[C@H]3O)nn2)[C@@H](C)C1", "measurement.target": "APOL1 (Homo sapiens)", "pIC50": "> 7.00"}

---

Catalogue of pIC50 readings, one per entry.
Molecular target: UniProtKB O14791
Experiment: MultiTox-Fluor Multiplex Cytotoxicity Assay in tet-inducible APOL1 T-REx-HEK293 cells (cell rescue, ratio of dead to live cells)
Conditions: tet-inducible transgenic APOL1 T-REx-HEK293 cell lines, 50 ng/mL tet, 24 hours; read-out: IP50 (i.e., IC50 for cell proliferation)
pIC50: −log10 of the molar value.

{"compound": "Cc1cc2c(s1)CCO[C@@]21CCN(C2CCCC2O)[C@@H](C)C1 (some centres unmarked) [Compound 505]", "pIC50": "> 7.00"}
{"compound": "CCc1cc2c(s1)CCO[C@@]21CCN(CC(O)c2ccc(F)c(F)c2)[C@@H](C)C1 (some centres unmarked) [Compound 253]", "pIC50": "6.30 to 7.00"}
{"compound": "C[C@H]1C[C@@]2(CCN1Cc1cnn(CC(=O)NCC(F)F)c1)OCCc1c2sc(C(F)(F)F)c1CO [Compound 913]", "pIC50": "> 7.00"}
{"compound": "CCc1cc2c(s1)CCOC21CCN(Cc2cn(CC(=O)NC)nn2)CC1 [Compound 1107]", "pIC50": "6.00 to 6.30"}
{"compound": "CCc1cc2c(s1)CCO[C@@]21CCN(CC2CN(S(=O)(=O)CCO)C2)[C@@H](C)C1 [Compound 492]", "pIC50": "6.30 to 7.00"}
{"compound": "C[C@H]1C[C@@]2(CCN1Cc1ccncc1F)OCCc1c2sc(Cl)c1CO [Compound 735]", "pIC50": "6.00 to 6.30"}
{"compound": "CCc1cc2c(s1)CCOC21CCN(Cc2ccc(C(=O)NCC3(C)CCOC3)nc2)CC1 (centres unmarked) [Compound 1062]", "pIC50": "6.30 to 7.00"}
{"compound": "CS(=O)(=O)CCn1cc(CN2CCC3(CC2)OCC(O)c2cc(Cl)sc23)cn1 (centres unmarked) [Compound 1181]", "pIC50": "6.00 to 6.30"}
{"compound": "CCCC(O)Cn1cc(CN2CC[C@]3(C[C@@H]2C)OCCc2sc(CC)cc23)nn1 (some centres unmarked) [Compound 85]", "pIC50": "> 7.00"}
{"compound": "CCc1cc2c(s1)CCOC21CCN(Cc2cn(CCC(N)=O)nn2)CC1 [Compound 1114]", "pIC50": "6.00 to 6.30"}
{"compound": "CCc1cc2c(s1)CCO[C@@]21CCN(C[C@H]2C[C@@H](NC(=O)c3ccc(C)nn3)C2)[C@@H](C)C1 [Compound 328]", "pIC50": "6.30 to 7.00"}

---

Molecular target: APOL1 (Homo sapiens)
Assay: MultiTox-Fluor Multiplex Cytotoxicity Assay in tet-inducible APOL1 T-REx-HEK293 cells (cell rescue, ratio of dead to live cells)
Conditions: tet-inducible transgenic APOL1 T-REx-HEK293 cell lines, 50 ng/mL tet, 24 hours; read-out: IP50 (i.e., IC50 for cell proliferation)
observable: IC50

{"compound": "CCc1cc2c(s1)CCO[C@@]21CCN(C[C@H]2C[C@@H](NS(=O)(=O)Cc3cccc(C)c3)C2)[C@@H](C)C1", "observable": "IC50", "result": "< 0.1 µM"}
{"compound": "CCc1cc2c(s1)CCO[C@@]21CCN(Cc2cn(CCc3cnccn3)nn2)[C@@H](C)C1", "observable": "IC50", "result": "0.1 to 0.5 µM"}
{"compound": "C[C@H]1C[C@@]2(CCN1Cc1cnn(CC3CC(C)(C)C(=O)O3)c1)OCCc1c2sc(C(F)(F)F)c1CO (stereo partly drawn)", "observable": "IC50", "result": "< 0.1 µM"}
{"compound": "Cc1cc2c(s1)[C@]1(CCN(Cc3cn[nH]c3)[C@@H](C)C1)OCC2", "observable": "IC50", "result": "< 0.1 µM"}
{"compound": "CCc1cc2c(s1)CCO[C@@]21CCN(CC#N)[C@@H](C)C1", "observable": "IC50", "result": "0.1 to 0.5 µM"}
{"compound": "CCc1cc2c(s1)CCO[C@@]21CCN(C[C@H]2C[C@H](N)C2)[C@@H](C)C1", "observable": "IC50", "result": "0.5 to 1 µM"}

---

IC50 values by entry
Molecular target: APOL1 (Homo sapiens)
Sequence (O14791 1-398 S342G/I384M): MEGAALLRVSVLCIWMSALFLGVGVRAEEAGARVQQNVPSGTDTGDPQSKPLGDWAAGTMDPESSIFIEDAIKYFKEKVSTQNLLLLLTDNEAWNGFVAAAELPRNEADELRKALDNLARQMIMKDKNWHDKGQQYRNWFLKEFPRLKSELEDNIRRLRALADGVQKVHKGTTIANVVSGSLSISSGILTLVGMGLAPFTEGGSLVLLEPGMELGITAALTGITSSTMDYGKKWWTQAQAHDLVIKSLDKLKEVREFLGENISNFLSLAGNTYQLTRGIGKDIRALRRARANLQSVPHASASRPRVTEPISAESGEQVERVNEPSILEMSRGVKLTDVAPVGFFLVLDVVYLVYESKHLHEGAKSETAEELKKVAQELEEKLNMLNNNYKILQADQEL
Assay: MultiTox-Fluor Multiplex Cytotoxicity Assay in tet-inducible APOL1 T-REx-HEK293 cells (cell rescue, ratio of dead to live cells)
Conditions: tet-inducible transgenic APOL1 T-REx-HEK293 cell lines, 50 ng/mL tet, 24 hours; read-out: IP50 (i.e., IC50 for cell proliferation)

{"compound": "C[C@H]1C[C@@]2(CCN1CC(O)c1ccccc1)OCCc1cc(CC(F)F)sc12 (stereo partly shown)", "measurement.target": "APOL1 (Homo sapiens)", "IC50": "< 100 nM"}
{"compound": "C[C@H]1C[C@]2(CCN1Cc1cn(CCS(C)(=O)=O)nn1)OCCc1cc(Cl)sc12", "measurement.target": "APOL1 (Homo sapiens)", "IC50": "500 to 1000 nM"}
{"compound": "CCc1cc2c(s1)CCO[C@@]21CCN(CC2CN(C(=O)CS(C)(=O)=O)C2)[C@@H](C)C1", "measurement.target": "APOL1 (Homo sapiens)", "IC50": "100 to 500 nM"}
{"compound": "C[C@H]1C[C@@]2(CCN1Cc1cn(CCS(C)(=O)=O)nn1)OCCc1c2sc(C(F)(F)F)c1CO", "measurement.target": "APOL1 (Homo sapiens)", "IC50": "< 100 nM"}
{"compound": "CCc1cc2c(s1)CCO[C@@]21CCN(C[C@H]2C[C@@H](NS(=O)(=O)c3cnccc3Cl)C2)[C@@H](C)C1", "measurement.target": "APOL1 (Homo sapiens)", "IC50": "< 100 nM"}
{"compound": "CCc1cc2c(s1)CCOC21CCN(Cc2ccc(C(=O)NC3CC(O)C3)nc2)CC1 (stereo not shown)", "measurement.target": "APOL1 (Homo sapiens)", "IC50": "< 100 nM"}
{"compound": "COc1cncc(CN2CC[C@]3(C[C@@H]2C)OC[C@H](O)c2cc(Cl)sc23)c1", "measurement.target": "APOL1 (Homo sapiens)", "IC50": "100 to 500 nM"}
{"compound": "C[C@H]1C[C@@]2(CCN1Cc1cnn(CC3(O)CC(C#N)C3)c1)OCCc1c2sc(C(F)(F)F)c1CO (stereo partly shown)", "measurement.target": "APOL1 (Homo sapiens)", "IC50": "< 100 nM"}
{"compound": "CCc1cc2c(s1)CCO[C@@]21CCN(CC2CN(C(=O)c3c[nH]c(C(F)(F)F)n3)C2)[C@@H](C)C1", "measurement.target": "APOL1 (Homo sapiens)", "IC50": "< 100 nM"}
{"compound": "C[C@H]1C[C@@]2(CCN1Cc1cnn(C)c1)OC[C@](O)(C(F)F)c1cc(Cl)sc12", "measurement.target": "APOL1 (Homo sapiens)", "IC50": "< 100 nM"}
{"compound": "CCc1cc2c(s1)CCO[C@@]21CCN(C[C@H]2C[C@@H](NC(=O)C3CCCC(C)(C)C3)C2)[C@@H](C)C1 (stereo partly shown)", "measurement.target": "APOL1 (Homo sapiens)", "IC50": "< 100 nM"}
{"compound": "C[C@H]1C[C@@]2(CCN1Cc1cnn(CC(O)C3CCOCC3)c1)OCCc1c2sc(C(F)(F)F)c1CO (stereo partly shown)", "measurement.target": "APOL1 (Homo sapiens)", "IC50": "< 100 nM"}
{"compound": "CCCc1cc2c(s1)CCO[C@@]21CCN(Cc2cnn(C)c2)[C@@H](C)C1", "measurement.target": "APOL1 (Homo sapiens)", "IC50": "< 100 nM"}
{"compound": "C[C@H]1C[C@@]2(CCN1Cc1cnc(NC(C)(C)CO)nc1)OC[C@](O)(C(F)F)c1cc(Cl)sc12", "measurement.target": "APOL1 (Homo sapiens)", "IC50": "< 100 nM"}
{"compound": "CCc1cc2c(s1)CCO[C@@]21CCN(C[C@H]2C[C@@H](NC(=O)C(O)C3CC3)C2)[C@@H](C)C1 (stereo partly shown)", "measurement.target": "APOL1 (Homo sapiens)", "IC50": "< 100 nM"}
{"compound": "C[C@H]1C[C@@]2(CCN1Cc1cccn(C)c1=O)OCCc1cc(CC(F)F)sc12", "measurement.target": "APOL1 (Homo sapiens)", "IC50": "500 to 1000 nM"}
{"compound": "COCCn1cc(CN2CC[C@]3(C[C@@H]2C)OCCc2c3sc(C(F)(F)F)c2CO)cn1", "measurement.target": "APOL1 (Homo sapiens)", "IC50": "< 100 nM"}
{"compound": "C[C@H]1C[C@@]2(CCN1Cc1cnn(C[C@H](O)CC#N)c1)OCCc1c2sc(C(F)(F)F)c1CO", "measurement.target": "APOL1 (Homo sapiens)", "IC50": "< 100 nM"}
{"compound": "CCc1cc2c(s1)CCO[C@@]21CCN(Cc2cn(CCOC)nn2)[C@@H](C)C1", "measurement.target": "APOL1 (Homo sapiens)", "IC50": "100 to 500 nM"}
